Experiment: Proton dissociation constants by UV-visible spectrophotometry
Format: physicochemical
Conditions: aqueous buffer solutions, UV-visible spectrophotometry, aqueous solution, T = 298.2 K; phenolic group; read-out: pKa4
Parameter: pKa. Scope: all listed entries.
measurement-name: pKa

* COc1cc(S(=O)(=O)[O-])cc(/C=N/NC(=S)N/N=C/c2cc(S(=O)(=O)[O-])cc(OC)c2O)c1O.[Na+].[Na+] [bis-TCH] | 8.77
* COc1cc(S(=O)(=O)[O-])cc(/C=N/NC(=O)N/N=C/c2cc(S(=O)(=O)[O-])cc(OC)c2O)c1O.[Na+].[Na+] [bis-CH] | 8.58

* * *

Assay: Proton dissociation constants by pH potentiometry
Type: physicochemical
Details: aqueous solution, T = 298.2 K, I = 0.1 M KCl, second sulfonic group, read-out: pKa2
Source text: Between pH = 3.98 and 6.00, the solutions were colourless with absorption maxima at 237 and 320 nm. From pH = 6.49, the solution was pale green, and the colour became more intense until pH = 10.00; the colour change was accompanied by the appearance of bands at 253 and 393 nm, with a shoulder at 445 nm. […] The values of pKa1 and pKa2, associated with the proton dissociation of the sulfonic groups, are expected to have much lower values (below 3) and could not be determined from these experiments. […]
measurement-name: pKa

- COc1cc(S(=O)(=O)[O-])cc(/C=N/NC(=O)N/N=C/c2cc(S(=O)(=O)[O-])cc(OC)c2O)c1O.[Na+].[Na+] [bis-CH]: 1.7

* * *

Assay: Proton dissociation constants by UV-visible spectrophotometry
Format: physicochemical
Settings: aqueous buffer solutions, average of spectrophotometric pKa3 and pKa4; read-out: single-site pKa value of the phenolic groups (average pKa)
Parameter: pKa. Scope: all listed entries.
measurement-name: pKa

• COc1cc(S(=O)(=O)[O-])cc(/C=N/NC(=S)N/N=C/c2cc(S(=O)(=O)[O-])cc(OC)c2O)c1O.[Na+].[Na+] = 7.78
• COc1cc(S(=O)(=O)[O-])cc(/C=N/NC(=O)N/N=C/c2cc(S(=O)(=O)[O-])cc(OC)c2O)c1O.[Na+].[Na+] = 7.96

* * *

Assay: Proton dissociation constants by UV-visible spectrophotometry
Type: physicochemical
Conditions: aqueous buffer solutions, UV-visible spectrophotometry, aqueous solution, T = 298.2 K; phenolic group; read-out: pKa3
Parameter: pKa. Scope: all listed entries.
measurement-name: pKa

* COc1cc(S(=O)(=O)[O-])cc(/C=N/NC(=O)N/N=C/c2cc(S(=O)(=O)[O-])cc(OC)c2O)c1O.[Na+].[Na+] | 7.34
* COc1cc(S(=O)(=O)[O-])cc(/C=N/NC(=S)N/N=C/c2cc(S(=O)(=O)[O-])cc(OC)c2O)c1O.[Na+].[Na+] | 6.78
